Test system: NCI-H460 lung
Assay: NCI tumour cell line growth inhibition, 48 h

{"columns": ["CHEMICAL_SMILES", "CENSORING_OPERATOR", "TGI, µM"],
 "data": [
  ["CCc1nc2cc3cccnc3c(Cl)c2[nH]c1=O", ">", 100],
  ["COc1cc(C(=O)C/C(CCC(=O)Nc2ccc(Cl)cc2Cl)=N/NC(=O)C(=O)NN)ccc1O", ">", 100],
  ["COC(=O)CCC1=C(CC(=O)OC)C(C)=N/C1=C\\c1[nH]c(-c2ccc[nH]2)cc1OC", "=", 13.7],
  ["COc1ccc2c(c1)CCN=C2c1ccccc1CCCCl", "=", 28.5],
  ["COC(=O)[C@H](C)NC(=O)[C@H](CSC)N1C(=O)N[C@@H](C(C)C)C1=O", ">", 100],
  ["N#CCCN(CCC#N)c1ccc(/C=C2\\SC(=S)NC2=O)cc1Br", ">", 100],
  ["[F][Sn]([F])([c]1ccccc1)[c]1ccccc1", "=", 4.97],
  ["O=C(N/N=C/c1c(Cl)cccc1Cl)c1ccc(C(F)(F)F)nc1Nc1cccc(C(F)(F)F)c1", "=", 6.13],
  ["COc1ccc(/C=N/N2C(=O)c3c(N)c(C#N)c(-c4ccccc4)c(-c4ccccc4)c3C2=O)cc1", ">", 100],
  ["CCOC(=O)Cn1c(=O)n(C)c(=O)c2c1ncn2Cc1ccccc1", ">", 100]
]}

* * *

Test system: CAKI-1 renal
Assay: NCI tumour cell line growth inhibition, 48 h
MEASURED_METRIC: TGI (µM)

{"columns": ["COMPOUND", "TESTED_ON", "MEASURED_METRIC", "CENSORING_OPERATOR", "READOUT_VALUE"],
 "data": [
  ["C=C(C)[C@@]1(O[Si](C)(C)C)CCCC[C@@H]1CC(Sc1ccccc1)Sc1ccccc1", "CAKI-1 renal", "TGI", "=", 25.8],
  ["CO/N=C(/C)c1cccc(Nc2cc(-c3ccccc3)nc3ccc(OC)cc23)c1", "CAKI-1 renal", "TGI", "=", 10.9],
  ["Clc1ccc(N=CNc2ccc(-c3nc4ccccc4o3)cc2)cc1", "CAKI-1 renal", "TGI", "=", 39.2],
  ["CN(C)CCSc1nccc(-c2cc3ccccc3s2)n1", "CAKI-1 renal", "TGI", "=", 56.7],
  ["C[C@]1(S(=O)(=O)c2ccccc2)C[C@H]2N(Cc3ccccc3)[C@@H]1CCC21OCCO1", "CAKI-1 renal", "TGI", ">", 100],
  ["CCCCCCCCCCN1CCC(N2CCCCC2)CC1", "CAKI-1 renal", "TGI", "=", 3.94],
  ["Cc1ccc(S(=O)(=O)NC(=O)NC2=NC(C)(C)N(c3ccc(Cl)c(Cl)c3)C(N)=N2)cc1", "CAKI-1 renal", "TGI", ">", 100],
  ["O=C(OCc1ccccc1)C(Cc1ccccc1)N(Cc1ccccc1)Cc1ccccc1 (stereo not given)", "CAKI-1 renal", "TGI", ">", 100],
  ["O=C(Nc1ccc(Cl)c(Cl)c1)Nc1ccccc1O", "CAKI-1 renal", "TGI", "=", 20.4],
  ["COC(=O)C1(Cc2ccc3c(c2)CCC3)Cc2ccccc2C1=O (stereo not given)", "CAKI-1 renal", "TGI", ">", 100]
]}
